Attribution: patent US20230303994

Recorded Selectivity for the following proteins
# targetUnderTest: pre-pro-human insulin

| protein | Selectivity |
| --- | --- |
| trypsin variant SEQ ID NO: 108 (protein) IVGGYTCAANSIPYQVSLNSGSHRCGGSLINSQWVVSAAHCYKPRIQVRLGEHNIDVLEGNEQFINAAKIITHPNFNPNTLDNDIMLIKLSSPATLNSAVATVSLPTSCAAAGTECLISGWGNTCSSGSSMPSLLQCLKAPVLSDSSCKSSYPGQITGNMICVGFLEGGADACQGDSGGPVVCNGQLQGIVSSGYGCAQKNKPGVYTKVCNYVNWIQQTIAAN | >80% |
| trypsin variant SEQ ID NO: 110 (protein) IVGGYTCAANSIPYQVSLNSGSHRCGGSLINSQWVVSAAHCYKSRIQVRLGEHNIHVLEGNEQFINAAKIITHPNFNPNTLDNDIMLIKLSSPATLNSHVATVSLPRSCAAAGTECLISGWGNTCSSGSSMPSLLQCLKAPVLSDSSCKSSYPGQITGNMICVGFLEGGADACQGDSGGPVVCNGQLQGIVSSGYGCAQKNKPGVYTKVCNYVNWIQQTIAAN | >90% |
